Examples of molecules with documented pKi follow.
target: JAK2 (Homo sapiens (Human)); assay: JAK2 activity inhibition assay (radioactive kinase assay / Caliper assay); type: biochemical; settings: read-out: JAK2 Ki
pKi: −log10 of the molar value.

Sure, the documented pKi for CN1CCC(C)(c2ccc(Nc3nc(-c4c(F)cccc4F)nc4c3C(=O)NC4)cc2)C1=O (stereo not shown) is 7.00 to 8.00

Sure, the documented pKi for `O=C(O)Cc1ccc(Nc2nc(-c3ccccc3Cl)nc3c2C(=O)NC3)cc1` is < 6.00

Sure, the documented pKi for O=C1NCc2nc(-c3c(F)cccc3F)cc(Nc3ccc(N4CCCC(O)C4)cn3)c21 (stereo not shown) is 7.00 to 8.00

Sure, the documented pKi for `O=C1NCc2nc(-c3c(F)cccc3F)cc(Nc3ccc(N4CCOCC4)cn3)c21` is 7.00 to 8.00

Sure, the documented pKi for `COC(=O)Cc1ccc(Nc2cc(-c3c(F)cccc3Cl)nc3c2C(=O)NC3)nc1` is 7.00 to 8.00

Sure, the documented pKi for `O=C1NCc2nc(-c3c(F)cccc3F)cc(Nc3ccc(N4CCC(F)(F)CC4)cn3)c21` is 7.00 to 8.00

Sure, the documented pKi for COc1ccc(Nc2cc(-c3c(F)cccc3F)nc3c2C(=O)NC3C)nc1 (stereo not shown) is 6.00 to 7.00

Sure, the documented pKi for `O=C1NCc2nc(-c3c(F)cccc3F)cc(Nc3ccc(OCCN4CCC4)cn3)c21` is 7.00 to 8.00

Sure, the documented pKi for `CCNC(=O)c1ccc(Nc2nc(-c3c(F)cccc3F)nc3c2C(=O)NC3)cc1` is 6.00 to 7.00

Sure, the documented pKi for `O=C1NCc2nc(-c3c(F)cccc3F)nc(Nc3ccc(C(=O)N4CC(O)C4)cc3)c21` is 6.00 to 7.00

Sure, the documented pKi for `O=C1NCc2nc(-c3c(F)cccc3F)cc(Nc3ccc(N4CCNCC4)cn3)c21` is 7.00 to 8.00

* * *

target: JAK2 (Homo sapiens (Human), UniProt O60674); experiment: JAK2 activity inhibition assay (radioactive kinase assay / Caliper assay); type: biochemical; settings: read-out: JAK2 Ki
Sequence (O60674 whole entry): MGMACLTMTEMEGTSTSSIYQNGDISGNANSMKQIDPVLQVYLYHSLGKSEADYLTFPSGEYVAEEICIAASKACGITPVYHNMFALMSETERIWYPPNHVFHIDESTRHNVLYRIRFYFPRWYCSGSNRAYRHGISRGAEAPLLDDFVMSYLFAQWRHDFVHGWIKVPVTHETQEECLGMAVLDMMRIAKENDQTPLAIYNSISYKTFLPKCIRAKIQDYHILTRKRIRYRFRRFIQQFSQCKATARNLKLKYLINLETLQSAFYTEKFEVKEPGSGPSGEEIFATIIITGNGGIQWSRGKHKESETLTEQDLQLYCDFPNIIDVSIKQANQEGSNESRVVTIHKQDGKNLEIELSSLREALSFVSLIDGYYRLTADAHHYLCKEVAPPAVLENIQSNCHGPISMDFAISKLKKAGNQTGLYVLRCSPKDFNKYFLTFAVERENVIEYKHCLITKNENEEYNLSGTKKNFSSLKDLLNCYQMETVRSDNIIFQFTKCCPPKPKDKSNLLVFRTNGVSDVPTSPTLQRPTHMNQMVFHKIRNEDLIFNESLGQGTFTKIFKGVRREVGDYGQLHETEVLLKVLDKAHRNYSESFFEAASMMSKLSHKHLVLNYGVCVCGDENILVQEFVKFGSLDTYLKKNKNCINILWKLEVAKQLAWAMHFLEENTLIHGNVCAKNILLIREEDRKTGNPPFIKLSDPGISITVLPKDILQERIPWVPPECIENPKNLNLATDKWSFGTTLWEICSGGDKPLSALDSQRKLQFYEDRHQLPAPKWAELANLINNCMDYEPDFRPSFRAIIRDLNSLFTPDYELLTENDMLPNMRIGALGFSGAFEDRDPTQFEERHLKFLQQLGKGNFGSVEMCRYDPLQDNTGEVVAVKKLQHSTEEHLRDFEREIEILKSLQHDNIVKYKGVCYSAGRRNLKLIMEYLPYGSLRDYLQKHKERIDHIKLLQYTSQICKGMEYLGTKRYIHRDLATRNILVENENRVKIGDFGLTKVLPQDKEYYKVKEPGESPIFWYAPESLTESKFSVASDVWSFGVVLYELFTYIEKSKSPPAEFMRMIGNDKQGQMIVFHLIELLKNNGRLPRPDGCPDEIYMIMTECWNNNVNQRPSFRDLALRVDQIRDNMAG
pKi: −log10 of the molar value.
Examples of compounds with documented pKi follow.

Please review the following examples before continuing.
compound: O=C(Cc1ccc(Nc2nc(-c3c(F)cccc3F)nc3c2C(=O)NC3)cc1)NCC1CNC1
measurementTarget: JAK2 (Homo sapiens (Human), UniProt O60674)
readoutValue: 6.00 to 7.00
//
compound: O=C(O)c1ccc(Nc2nc(-c3c(F)cccc3F)nc3c2C(=O)NC3)cc1
measurementTarget: JAK2 (Homo sapiens (Human), UniProt O60674)
readoutValue: 6.00 to 7.00
//
compound: O=C1NCc2nc(-c3c(F)cccc3F)nc(Nc3ccc(CC(=O)N4CC5(COC5)C4)cc3)c21
measurementTarget: JAK2 (Homo sapiens (Human), UniProt O60674)
readoutValue: 6.00 to 7.00
//
compound: C[C@H](C(=O)O)c1ccc(Nc2nc(-c3c(F)cccc3F)nc3c2C(=O)NC3)cc1
measurementTarget: JAK2 (Homo sapiens (Human), UniProt O60674)
readoutValue: 6.00 to 7.00
//
compound: CN1CCN(C)C(C)(c2ccc(Nc3nc(-c4c(F)cccc4F)nc4c3C(=O)NC4)cc2)C1=O (stereo not drawn)
measurementTarget: JAK2 (Homo sapiens (Human), UniProt O60674)
readoutValue: 7.00 to 8.00

Turning to the following compound.
Item: `O=C(Cc1ccc(Nc2nc(-c3c(F)cccc3F)nc3c2C(=O)NC3)cc1)NCCO` | System: JAK2 (Homo sapiens (Human), UniProt O60674) | pKi: 6.00 to 7.00

* * *

target: JAK2 (Homo sapiens (Human)); assay: JAK2 activity inhibition assay (radioactive kinase assay / Caliper assay); format: biochemical; conditions: read-out: JAK2 Ki
Examples of molecules with documented Ki follow.

Please review the following examples before continuing.
molecule: O=C1NCc2nc(-c3c(F)cccc3F)nc(Nc3ccc([C@@H]4CCN(C5CCC5)C4=O)cc3)c21
propertyLabel: Ki
readoutValue: 100 to 1000 nM

molecule: O=C1NCc2nc(-c3c(F)cccc3F)cc(Nc3ccc(N4CCOCC4)nc3)c21
propertyLabel: Ki
readoutValue: 100 to 1000 nM

molecule: O=C1NCc2nc(-c3c(F)cccc3F)nc(Nc3ccc(C4CCN(CCO)C4=O)cc3)c21 (stereo not shown)
propertyLabel: Ki
readoutValue: 100 to 1000 nM

Sure, the documented Ki for `Cn1cc(Nc2nc(-c3c(F)cccc3F)nc3c2C(=O)NC3)cn1` is > 1000 nM

Sure, the documented Ki for `CC1(O)CCN(c2ccc(Nc3cc(-c4c(F)cccc4F)nc4c3C(=O)NC4)nc2)CC1` is 10 to 100 nM

Sure, the documented Ki for `C[C@@]1(c2ccc(Nc3nc(-c4c(F)cccc4F)nc4c3C(=O)NC4)cc2)NC(=O)NC1=O` is 10 to 100 nM

Sure, the documented Ki for `C[C@H]1COCCN1C(=O)Cc1ccc(Nc2nc(-c3c(F)cccc3F)nc3c2C(=O)NC3)cc1` is 100 to 1000 nM

* * *

target: UniProtKB O60674; experiment: JAK2 activity inhibition assay (radioactive kinase assay / Caliper assay); type: biochemical; conditions: read-out: JAK2 Ki
Examples of compounds with documented Ki follow.

smiles: CC(C)NC(=O)c1ccc(Nc2cc(-c3c(F)cccc3F)nc3c2C(=O)NC3)nc1
measurementTarget: UniProtKB O60674
readoutValue: 10 to 100 nM
--
smiles: CC1(C)C[C@H](c2ccc(Nc3nc(-c4c(F)cccc4F)nc4c3C(=O)NC4)cc2)C(=O)N1
measurementTarget: UniProtKB O60674
readoutValue: 10 to 100 nM
--
smiles: O=C1NCc2nc(-c3c(F)cccc3F)cc(Nc3ccc(NCCN4CCC(F)(F)CC4)cn3)c21
measurementTarget: UniProtKB O60674
readoutValue: 10 to 100 nM

Sure, the documented Ki for `N[C@@H]1CCCN(c2ccc(Nc3cc(-c4c(F)cccc4F)nc4c3C(=O)NC4)nc2)C1` is < 10 nM

* * *

target: TYK2 (Homo sapiens (Human), UniProt P29597); test: Tyk2 activity inhibition assay (radioactive kinase assay / Caliper assay); format: biochemical
Sequence (P29597 whole entry): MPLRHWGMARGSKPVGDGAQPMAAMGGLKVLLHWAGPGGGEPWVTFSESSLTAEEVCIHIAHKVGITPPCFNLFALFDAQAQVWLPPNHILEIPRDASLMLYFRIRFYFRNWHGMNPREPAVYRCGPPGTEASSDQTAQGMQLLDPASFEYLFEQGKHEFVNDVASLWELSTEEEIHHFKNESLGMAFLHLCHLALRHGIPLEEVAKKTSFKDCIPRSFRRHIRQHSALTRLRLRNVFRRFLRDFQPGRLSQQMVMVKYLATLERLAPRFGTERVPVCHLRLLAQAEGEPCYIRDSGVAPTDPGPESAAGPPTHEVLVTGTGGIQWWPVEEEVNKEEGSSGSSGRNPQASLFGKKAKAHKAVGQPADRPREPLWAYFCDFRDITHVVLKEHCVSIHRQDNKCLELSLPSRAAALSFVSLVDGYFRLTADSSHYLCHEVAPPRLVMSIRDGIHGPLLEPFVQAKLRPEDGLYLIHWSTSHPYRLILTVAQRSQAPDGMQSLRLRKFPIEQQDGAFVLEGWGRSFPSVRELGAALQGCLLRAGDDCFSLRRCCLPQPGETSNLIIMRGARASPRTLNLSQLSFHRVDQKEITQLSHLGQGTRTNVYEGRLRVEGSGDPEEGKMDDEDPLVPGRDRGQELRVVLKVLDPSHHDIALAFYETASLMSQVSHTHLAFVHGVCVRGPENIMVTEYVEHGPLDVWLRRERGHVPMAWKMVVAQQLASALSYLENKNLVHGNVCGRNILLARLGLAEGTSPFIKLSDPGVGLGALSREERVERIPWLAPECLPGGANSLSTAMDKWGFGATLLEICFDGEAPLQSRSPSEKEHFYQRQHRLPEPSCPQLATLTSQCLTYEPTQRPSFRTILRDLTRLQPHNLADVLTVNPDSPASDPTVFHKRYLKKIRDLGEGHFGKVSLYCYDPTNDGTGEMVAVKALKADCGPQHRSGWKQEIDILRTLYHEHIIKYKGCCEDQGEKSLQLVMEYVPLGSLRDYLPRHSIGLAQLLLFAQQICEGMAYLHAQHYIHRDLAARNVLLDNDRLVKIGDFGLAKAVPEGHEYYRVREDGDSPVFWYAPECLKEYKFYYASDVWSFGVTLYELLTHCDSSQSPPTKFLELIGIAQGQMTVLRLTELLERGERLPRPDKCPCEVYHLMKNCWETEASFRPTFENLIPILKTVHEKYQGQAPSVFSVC
Examples of molecules with documented Ki follow.

molecule: CN1CCC(C)(c2ccc(Nc3nc(-c4c(F)cccc4F)nc4c3C(=O)NC4)cc2)C1=O (centres unmarked) [Compound I-150]
measurementTarget: TYK2 (Homo sapiens (Human), UniProt P29597)
readoutValue: < 10 nM
--
molecule: CN1CCNC(C)(c2ccc(Nc3nc(-c4c(F)cccc4F)nc4c3C(=O)NC4)cc2)C1=O (centres unmarked) [Compound I-215]
measurementTarget: TYK2 (Homo sapiens (Human), UniProt P29597)
readoutValue: < 10 nM
--
molecule: O=C1NCc2nc(-c3c(F)cccc3F)nc(Nc3ccc(CC(=O)N4CCOC[C@@H]4C(=O)O)cc3)c21 [Compound I-194]
measurementTarget: TYK2 (Homo sapiens (Human), UniProt P29597)
readoutValue: 10 to 100 nM
--
molecule: Cn1cc(Nc2nc(-c3c(F)cccc3F)nc3c2C(=O)NC3)cn1 [Compound I-160]
measurementTarget: TYK2 (Homo sapiens (Human), UniProt P29597)
readoutValue: 10 to 100 nM
--
molecule: CCNC(=O)c1ccc(Nc2cc(-c3c(F)cccc3F)nc3c2C(=O)NC3)nc1 [Compound I-136]
measurementTarget: TYK2 (Homo sapiens (Human), UniProt P29597)
readoutValue: < 10 nM

Turning to the following molecule.
Sure, the documented Ki for O=C1NCc2nc(-c3c(F)cccc3F)cc(Nc3ccc(N4CC(O)C4)cn3)c21 [Compound I-214] is < 10 nM

* * *

target: JAK2 (Homo sapiens (Human), UniProt O60674); test: JAK2 activity inhibition assay (radioactive kinase assay / Caliper assay); assay type: biochemical; details: read-out: JAK2 Ki
Examples of compounds with documented Ki follow.

Please review the following examples before continuing.
compound: O=C(Cc1ccc(Nc2nc(-c3c(F)cccc3F)nc3c2C(=O)NC3)cc1)NCC1CCNCC1 [Compound I-13]
Ki: 100 to 1000 nM
//
compound: O=C1NCc2nc(-c3c(F)cccc3F)nc(Nc3ccccc3)c21 [Compound I-179]
Ki: 100 to 1000 nM
//
compound: CCNC(=O)Cc1ccc(Nc2nc(-c3c(F)cccc3F)nc3c2C(=O)NC3)cc1 [Compound I-80]
Ki: 100 to 1000 nM
//
compound: O=C1NCc2nc(-c3c(F)cccc3F)cc(Nc3ccc(N4CCN(CC(F)F)CC4)cn3)c21 [Compound I-247]
Ki: 10 to 100 nM
//
compound: COc1ccc(Nc2nc(N3[C@H](C)CCC[C@@H]3C)nc3c2C(=O)NC3)cc1 [Compound I-183]
Ki: 10 to 100 nM

Sure, the documented Ki for CC(C)(O)CNC(=O)Cc1ccc(Nc2nc(-c3c(F)cccc3F)nc3c2C(=O)NC3)cc1 [Compound I-76] is 10 to 100 nM

Sure, the documented Ki for CC1(C)CCCC(=O)N1c1ccc(Nc2cc(-c3c(F)cccc3F)nc3c2C(=O)NC3)nc1 [Compound I-284] is 10 to 100 nM

Sure, the documented Ki for O=C1NCc2nc(-c3c(F)cccc3F)nc(Nc3ccc([C@H]4CCCNC4=O)cc3)c21 [Compound I-154] is 100 to 1000 nM

Sure, the documented Ki for COc1ccc(Nc2nc(-c3c(F)cccc3F)nc3c2C(=O)NC3)cc1 [Compound I-110] is > 1000 nM

Sure, the documented Ki for COc1ccc(Nc2cc(-c3c(F)cccc3F)nc3c2C(=O)NC3)nc1OC [Compound I-170] is 10 to 100 nM
